For each of the molecules below, state its log10 fluorescence lifetime.
Assay: solvent given as SMILES
Settings: in C1CCCCC1
Response schema: value (number) is log10 of fluorescence lifetime in units of ns.

1) C[Si](C)(C)C#Cc1ccc(C#C[Si](C)(C)C)c2ccccc12: 0.30

Parameter requested: log10 fluorescence lifetime. Apply to each item below.
1. CNC1=C2C=CC=[N+]2[B-](F)(F)n2cccc21
2. C(#Cc1cccc2cc(-c3ccccc3)c3cc(-c4cc[b-]5c(c4)c(-c4ccccc4)cc4cccc(C#Cc6ccccc6)[n+]54)cc[b-]3[n+]12)c1ccccc1
3. CC1(C)c2cc(C#N)ccc2-c2ccc(N3c4ccccc4Oc4ccccc43)cc21
4. COc1cc(OC)cc(-c2ccc(-c3ccc(C#N)s3)s2)c1
5. Cc1ccc2ccccc2c1
6. Cc1ccc(C2=C3C=CC=[N+]3[B-](F)(F)n3cccc32)cc1

A)
1: 0.67; 2: 0.38; 3: 0.28; 4: -0.66; 5: 2.06; 6: -0.47

Batch: log10 fluorescence lifetime for all items listed.
1. CN(C)c1ccc2nc(-c3ccc(/C=N/c4ccccc4)cc3)sc2c1
2. C[SiH](C)c1cccc2ccccc12
3. C(=C\N1CCCC1)/c1nc2ccccc2nc1-c1ccccc1

A)
1. 0.34
2. 1.79
3. 0.36

Q) Look up log10 fluorescence lifetime: `Cn1nc(-c2ccccc2)c2nc3cc(Cl)ccc3nc21`
A) 1.38

* * *

Assay: solvent given as SMILES
Settings: in CCCCCCCCC
So I've got a bunch of compounds here, and I need their fluorescence lifetime values.
Give bare numbers, in ns.

1. COC(=O)C(Cc1ccc2oc(-c3ccc(N(C)C)cc3)nc2c1)NC(=O)OC(C)(C)C (configuration not stated): 1.08
2. COC(=O)C(Cc1ccc2oc(-c3ccc(Nc4ccccc4)cc3)nc2c1)NC(=O)OC(C)(C)C (configuration not stated): 1.06
3. CCC1(CC)c2cc(-c3ccc(-c4ccc5c(c4)C(CC)(CC)c4cc(C(C)(C)C)ccc4-5)cc3)ccc2-c2ccc(C(C)(C)C)cc21: 0.72
4. CCC1(CC)c2cc(-c3ccc4c(c3)C(CC)(CC)c3cc(C(C)(C)C)ccc3-4)ccc2-c2ccc(-c3ccc4c(c3)C(CC)(CC)c3cc(C(C)(C)C)ccc3-4)cc21: 0.7
5. COC(=O)C(Cc1ccc2oc(-c3ccc4c(c3)c3ccccc3n4-c3ccccc3)nc2c1)NC(=O)OC(C)(C)C (configuration not stated): 2.3

Below is a list of compounds. For each, state its recorded fluorescence lifetime.
1. COC(=O)C(Cc1ccc2oc(-c3ccc(N(C)c4ccccc4)cc3)nc2c1)NC(=O)OC(C)(C)C (configuration not stated)
2. CCC1(CC)c2cc(-c3ccc(C(C)(C)C)cc3)ccc2-c2ccc(-c3ccc4c(c3)C(CC)(CC)c3cc(-c5ccc6c(c5)C(CC)(CC)c5cc(-c7ccc(C(C)(C)C)cc7)ccc5-6)ccc3-4)cc21

A)
[1.78, 0.62]

* * *

Experiment: solvent given as SMILES
Settings: in CCCCC
quantity.kind: fluorescence lifetime (ns)
Numbers only, in ns.

Here's what some known entries look like.
1) COC(=O)C(Cc1ccc2oc(-c3ccc(Nc4ccccc4)cc3)nc2c1)NC(=O)OC(C)(C)C (centres undefined): 1.14
2) COC(=O)C(Cc1ccc2oc(-c3ccc(N(C)C)cc3)nc2c1)NC(=O)OC(C)(C)C (centres undefined): 1.12
3) CC(C)(C)c1ccc2c(c1)c1cc(C(C)(C)C)ccc1n2-c1ccc(C#Cc2ccccc2)cc1: 2.07

Now take the following molecule into account.
Q) Record request: fluorescence lifetime value, item `CCC1(CC)c2cc(-c3ccc4c(c3)C(CC)(CC)c3cc(C(C)(C)C)ccc3-4)ccc2-c2ccc(-c3ccc4c(c3)C(CC)(CC)c3cc(C(C)(C)C)ccc3-4)cc21`
A) 0.72

* * *

Experiment: solvent given as SMILES
Details: in CCCCOCCCC
quantity.kind: log10 fluorescence lifetime (log10 of the value in ns)
Log10 applied to fluorescence lifetime; unit prior to transform: ns.

Would you please look over these solved cases?
1. CCCCCCCCCCCCCCCCOc1cc(C#Cc2ccc3ccccc3c2)c(OCCCCCCCCCCCCCCCC)cc1C#Cc1ccc(C=C(C#N)C#N)cc1: 0.44
2. Nc1ccc2c3c(cccc13)C(=O)c1ccccc1-2: 0.96
3. c1ccc(-c2nn(-c3ccccc3)c3nc4ccc(N(c5ccccc5)c5cccc6ccccc56)cc4cc23)cc1: 1.11
4. O=C1c2ccccc2-c2ccc(Nc3nc(Cl)nc(Cl)n3)c3cccc1c23: -0.30
5. Cc1cc(N(C)C)cc(C)c1/C=C/C=C/c1ccc(C#N)cc1: -0.42

Quick request: log10 fluorescence lifetime for each listed item, please.
1. CCCCCCCCCCCCCCCCOc1cc(C#Cc2ccc3ccccc3c2-c2c(C#Cc3cc(OCCCCCCCCCCCCCCCC)c(C#Cc4ccc(C=C(C#N)C#N)cc4)cc3OCCCCCCCCCCCCCCCC)ccc3ccccc23)c(OCCCCCCCCCCCCCCCC)cc1C#Cc1ccc(C=C(C#N)C#N)cc1
2. O=C1NC(=O)c2c1c1c3ccccc3[nH]c1c1[nH]c3ccccc3c21
3. COc1ccc2c3c(cccc13)C(=O)c1ccccc1-2

A)
1. 0.44
2. 0.90
3. -0.22

* * *

Test: solvent given as SMILES
Details: in O
quantity.kind: fluorescence lifetime (ns)
Numbers only, in ns.

1) Cc1c2oc3c(C)c(N)cc(C(=O)NC4OC(=O)C(C(C)C)N(C)C(=O)CN(C)C(=O)C5CCCN5C(=O)C(C(C)C)NC4=O)c3nc-2c(C(=O)NC2OC(=O)C(C(C)C)N(C)C(=O)CN(C)C(=O)C3CCCN3C(=O)C(C(C)C)NC2=O)c(N)c1=O (stereo unspecified): 0.75
2) CCN(CC)c1ccc2c(c1)C(C)(C)C(=O)C=C2: 2.56
3) O=[N+]([O-])c1ccc(F)cc1C1CC(c2cccc3ccccc23)=NN1c1ccccc1 (stereo unspecified): 1.4
4) [NH-]c1cc(N)cc(-c2nc3ccccc3s2)c1: 3.98
5) N#C[Se]CCCCCOc1ccc2ccc(=O)oc2c1: 1.75

Now for another entry.
Q) Entry `Cc1cc(=O)oc2c3c4c(cc12)CCCN4CCC3` has what fluorescence lifetime?
A) 5.9

* * *

Assay: solvent given as SMILES
Settings: in Cc1ccccc1
Please provide measured fluorescence lifetime for the entries that follow.
One number for each entry, in ns.

I need fluorescence lifetime for every entry listed below, if you could help.
1. Cc1cc(C)c(B(c2c(C)cc(C)cc2C)c2ccc3ccc4cccc5ccc2c3c45)c(C)c1
2. COC(=O)/C(C#N)=c1/cc/c(=c2/cc/c(=C(\C#N)C(=O)OC)s2)s1
3. c1ccc(-c2ccc3c(c2)c2cc(-c4ccccc4)ccc2n3-c2ccc3c(c2)c2cc(-n4c5ccc(-c6ccccc6)cc5c5cc(-c6ccccc6)ccc54)ccc2n3-c2ccc(-c3nc(-c4ccccc4)nc(-c4ccccc4)n3)cc2)cc1
4. O=C1c2ccccc2-c2ccc(Nc3nc(Cl)nc(Cl)n3)c3cccc1c23
5. CCN(CC)c1ccc(-c2nc3c(c4c2-c2ccccc2CC4)-c2ccccc2CC3)cc1

A)
1. 3
2. 0.016
3. 6.3
4. 0.9
5. 0.8

* * *

Experiment: solvent given as SMILES
Settings: in CCCO
quantity.kind: fluorescence lifetime (ns)
One number for each entry, in ns.

// solved cases for fluorescence lifetime follow
1) CCOC(=O)c1ccc2c(c1)[nH]c1c3ccc(C(=O)OCC)cc3[nH]c21: 4.75
2) CCOC(=O)c1ccc2c(c1)sc1c3ccc(C(=O)OCC)cc3n(C)c21: 3.9
3) CC1=C(C(C)(C)C)C(C)=[N+]2C1=C(C)c1c(C)c(C(C)(C)C)c(C)n1[B-]2(F)F: 4.19

// next item, fluorescence lifetime requested
Q) State the recorded fluorescence lifetime for this entry: Cc1c2oc3c(C)c(N)cc(C(=O)NC4OC(=O)C(C(C)C)N(C)C(=O)CN(C)C(=O)C5CCCN5C(=O)C(C(C)C)NC4=O)c3nc-2c(C(=O)NC2OC(=O)C(C(C)C)N(C)C(=O)CN(C)C(=O)C3CCCN3C(=O)C(C(C)C)NC2=O)c(N)c1=O (centres undefined)
A) 1.34

* * *

Assay: solvent given as SMILES
Conditions: in CCCCC
Could you mark each record 1 if its fluorescence lifetime falls strictly under 0.7 ns, and 0 if it equals or exceeds it?

Examples from the recorded data:
1) COC(=O)C(Cc1ccc2oc(-c3ccc4c(c3)c3ccccc3n4-c3ccccc3)nc2c1)NC(=O)OC(C)(C)C (stereo not given): 0
2) CCC1(CC)c2cc(-c3ccc(C(C)(C)C)cc3)ccc2-c2ccc(-c3ccc4c(c3)C(CC)(CC)c3cc(-c5ccc6c(c5)C(CC)(CC)c5cc(-c7ccc(C(C)(C)C)cc7)ccc5-6)ccc3-4)cc21: 1
3) CC(C)(C)c1ccc2c(c1)c1cc(C(C)(C)C)ccc1n2-c1ccc(C#Cc2cccc(C#Cc3ccc(-n4c5ccc(C(C)(C)C)cc5c5cc(C(C)(C)C)ccc54)cc3)c2)cc1: 0
4) COC(=O)C(Cc1ccc2oc(-c3ccc(N(C)c4ccccc4)cc3)nc2c1)NC(=O)OC(C)(C)C (stereo not given): 0

Q) Input `CCC1(CC)c2cc(-c3ccc(-c4ccc5c(c4)C(CC)(CC)c4cc(C(C)(C)C)ccc4-5)cc3)ccc2-c2ccc(C(C)(C)C)cc21` ; condition: fluorescence lifetime strictly below 0.7 ns. Does it hold?
A) 0
